# measurement-target: Monoamine transporters; serotonin & dopamine (Rattus norvegicus) (UniProt P31652+P23977)
# Sequence (P23977 whole entry, looked up): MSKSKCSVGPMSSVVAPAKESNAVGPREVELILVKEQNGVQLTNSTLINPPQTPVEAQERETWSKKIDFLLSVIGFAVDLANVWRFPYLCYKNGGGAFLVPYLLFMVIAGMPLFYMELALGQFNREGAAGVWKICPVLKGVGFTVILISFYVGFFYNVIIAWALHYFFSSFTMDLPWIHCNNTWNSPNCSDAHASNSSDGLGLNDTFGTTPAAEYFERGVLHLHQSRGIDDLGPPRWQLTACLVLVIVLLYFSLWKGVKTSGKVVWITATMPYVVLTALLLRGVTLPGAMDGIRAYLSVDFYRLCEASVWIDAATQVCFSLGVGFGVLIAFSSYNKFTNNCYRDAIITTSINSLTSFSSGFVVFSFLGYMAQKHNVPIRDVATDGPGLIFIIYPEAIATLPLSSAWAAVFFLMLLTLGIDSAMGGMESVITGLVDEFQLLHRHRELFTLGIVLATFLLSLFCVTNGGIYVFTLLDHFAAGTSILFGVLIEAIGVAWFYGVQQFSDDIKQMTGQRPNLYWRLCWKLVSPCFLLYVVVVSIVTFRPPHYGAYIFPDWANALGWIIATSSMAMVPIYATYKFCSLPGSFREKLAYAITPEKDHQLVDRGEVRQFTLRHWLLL
# Sequence (P31652 whole entry, looked up): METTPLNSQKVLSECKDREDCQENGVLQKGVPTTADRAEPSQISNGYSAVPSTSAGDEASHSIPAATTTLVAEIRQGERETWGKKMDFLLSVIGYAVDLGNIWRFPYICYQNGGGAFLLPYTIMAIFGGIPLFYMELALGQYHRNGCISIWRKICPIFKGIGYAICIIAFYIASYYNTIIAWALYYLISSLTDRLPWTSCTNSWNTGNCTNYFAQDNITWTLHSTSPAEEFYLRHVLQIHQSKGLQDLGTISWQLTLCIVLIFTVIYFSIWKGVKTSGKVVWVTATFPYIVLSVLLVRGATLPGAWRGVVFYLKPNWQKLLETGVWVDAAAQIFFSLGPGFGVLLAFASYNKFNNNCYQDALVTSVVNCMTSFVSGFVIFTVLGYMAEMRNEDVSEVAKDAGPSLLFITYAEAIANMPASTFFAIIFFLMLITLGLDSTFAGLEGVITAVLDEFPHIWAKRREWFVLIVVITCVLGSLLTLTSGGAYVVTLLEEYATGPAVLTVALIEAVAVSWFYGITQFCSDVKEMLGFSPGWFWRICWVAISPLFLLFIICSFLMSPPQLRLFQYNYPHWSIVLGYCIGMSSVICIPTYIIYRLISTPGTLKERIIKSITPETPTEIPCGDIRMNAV
# assay-name: Relative binding affinity for serotonin and dopamine transporters, ratio of IC50
# Format: protein assay
Could you label it Criterion met if measured Selectivity is 10 or higher, and Criterion not met otherwise?

molecule=COc1ccc(CN2CCN3C[C@@H]2CC[C@H]3C(c2ccccc2)c2ccccc2)cc1 assigned_category="Criterion met"
molecule="O=S(=O)(Nc1ccc(CN2CCN3CC2CCC3C(c2ccccc2)c2ccccc2)cc1)c1ccc(Cl)cc1 (stereo not given)" assigned_category="Criterion met"
molecule="Fc1ccc(CCN2CCN3CC2CCC3C(c2ccccc2)c2ccccc2)cc1 (stereo not given)" assigned_category="Criterion not met"
molecule="COc1ccc(CNC2CCC(C(c3ccccc3)c3ccccc3)NC2)cc1 (stereo not given)" assigned_category="Criterion met"
